Test system: Jurkat E6.1 cells
Assay: Cell cycle analysis with RNase/PI stain by flow cytometry
Format: cell-based, human
Conditions: Jurkat E6.1, treated at IC50 concentration, 24 h, mean ± SEM
measured endpoint: cells in G0/G1 phase

compound	cells in G0/G1 phase
CCN(CC)C(=S)[S][Sn]([CH3])([CH3])[S]C(=S)N(CC)CC [ODTC 7, dimethyltin(IV) diethyl dithiocarbamate]	23.41% ± 5.37
CC[C@]1(O)C[C@H]2CN(CCc3c([nH]c4ccccc34)[C@@](C(=O)OC)(c3cc4c(cc3OC)N(C=O)[C@H]3[C@@](O)(C(=O)OC)[C@H](OC(C)=O)[C@]5(CC)C=CCN6CC[C@]43[C@@H]65)C2)C1 [Vincristine (positive control), Vincristine, reference compound]	66.76% ± 1.39
CCN(CC)C(=S)[S][Sn]([c]1ccccc1)([c]1ccccc1)[c]1ccccc1 [ODTC 5, triphenyltin(IV) diethyl dithiocarbamate]	9.84% ± 0.71

Lab note: each compound below needs its cells in G0/G1 phase filled in.
1. C=CCN(CC=C)C(=S)[S][Sn]([S]C(=S)N(CC=C)CC=C)([c]1ccccc1)[c]1ccccc1 [ODTC 2, diphenyltin(IV) diallyl dithiocarbamate]
2. C=CCN(CC=C)C(=S)[S][Sn]([c]1ccccc1)([c]1ccccc1)[c]1ccccc1 [ODTC 4, triphenyltin(IV) diallyl dithiocarbamate]
3. CC(C)N(C(=S)[S][Sn]([c]1ccccc1)([c]1ccccc1)[c]1ccccc1)C(C)C

output:
21.63% ± 3.17
13.22% ± 2.30
68.37% ± 4.78

---

Test system: Jurkat E6.1 cells
Assay: Cell cycle analysis with RNase/PI stain by flow cytometry
Assay type: cell-based, human
Conditions: Jurkat E6.1, treated at IC50 concentration, 24 h, mean ± SEM
measured endpoint: cells in S phase

compound	measured endpoint	recorded result
C=CCN(CC=C)C(=S)[S][Sn]([c]1ccccc1)([c]1ccccc1)[c]1ccccc1 [ODTC 4, triphenyltin(IV) diallyl dithiocarbamate]	cells in S phase	64.10% ± 4.46

# ---- query compound ----
input: What value of cells in S phase has been recorded for this entry: CC[C@]1(O)C[C@H]2CN(CCc3c([nH]c4ccccc34)[C@@](C(=O)OC)(c3cc4c(cc3OC)N(C=O)[C@H]3[C@@](O)(C(=O)OC)[C@H](OC(C)=O)[C@]5(CC)C=CCN6CC[C@]43[C@@H]65)C2)C1 [Vincristine (positive control), Vincristine, reference compound]
output: 25.24% ± 1.39

---

System: WIL2-NS non-cancerous cells
Assay: WST-1 cytotoxicity assay on WIL2-NS cells
Format: cell-based
Details: WST-1, 24 h exposure, highest concentration 5.0 μM, mean ± SEM, n = 3; read-out: Value of IC50 WIL2-NS
Give pIC50 for every item shown.
One number for each entry, as −log10 of the molar value.

>>> print(df.to_string())
                                   molecule  recorded_result
0  C=CCN(CC=C)C(=S)[S][Sn]([c]1ccccc1)([c]1ccccc1)[c]1ccccc1 [ODTC 4, triphenyltin(IV) diallyl dithiocarbamate]             6.17
1  CC(C)N(C(=S)[S][Sn]([c]1ccccc1)([c]1ccccc1)[c]1ccccc1)C(C)C             6.12
2  CCN(CC)C(=S)[S][Sn]([CH3])([CH3])[S]C(=S)N(CC)CC [ODTC 7, dimethyltin(IV) diethyl dithiocarbamate]             6.30

Read the next record carefully.
input: // pIC50 lookup, key: "CC(C)N(C(=S)[S][Sn]([S]C(=S)N(C(C)C)C(C)C)([c]1ccccc1)[c]1ccccc1)C(C)C"
output: 5.86

---

Please provide measured Selectivity Index (SI) for the entries that follow.
Tested on: Jurkat E6.1 human T acute lymphoblastic leukemia cell line
Assay: WST-1 cytotoxicity assay on Jurkat E6.1 cells
Conditions: IC50 non-cancerous cell line (WIL2-NS) / IC50 leukemia cell line (Jurkat E6.1)
Numbers only.

compound	assayed system	Selectivity Index (SI)
CC(C)N(C(=S)[S][Sn]([c]1ccccc1)([c]1ccccc1)[c]1ccccc1)C(C)C	Jurkat E6.1 human T acute lymphoblastic leukemia cell line	1.11

Provide the reported Selectivity Index (SI) of each entry below, same order.
1. CC[C@]1(O)C[C@H]2CN(CCc3c([nH]c4ccccc34)[C@@](C(=O)OC)(c3cc4c(cc3OC)N(C=O)[C@H]3[C@@](O)(C(=O)OC)[C@H](OC(C)=O)[C@]5(CC)C=CCN6CC[C@]43[C@@H]65)C2)C1 [Vincristine (positive control), Vincristine, reference compound]
2. C=CCN(CC=C)C(=S)[S][Sn]([S]C(=S)N(CC=C)CC=C)([c]1ccccc1)[c]1ccccc1 [ODTC 2, diphenyltin(IV) diallyl dithiocarbamate]
3. C=CCN(CC=C)C(=S)[S][Sn]([c]1ccccc1)([c]1ccccc1)[c]1ccccc1 [ODTC 4, triphenyltin(IV) diallyl dithiocarbamate]

output:
1: 0.96; 2: 0.50; 3: 0.71

---

Test system: Jurkat E6.1 cells
Assay: Cell cycle analysis with RNase/PI stain by flow cytometry
Format: cell-based, human
Conditions: Jurkat E6.1, treated at IC50 concentration, 24 h, mean ± SEM
Field: cells in S phase. Provide a value for each of the compounds that follow.

Examples with answers:
In [3]: df
Out[3]:
                                   compound  measured_endpoint  recorded_result
0  CCN(CC)C(=S)[S][Sn]([c]1ccccc1)([c]1ccccc1)[c]1ccccc1 [ODTC 5, triphenyltin(IV) diethyl dithiocarbamate]   cells in S phase    58.70% ± 3.37
1  C=CCN(CC=C)C(=S)[S][Sn]([S]C(=S)N(CC=C)CC=C)([c]1ccccc1)[c]1ccccc1 [ODTC 2, diphenyltin(IV) diallyl dithiocarbamate]   cells in S phase    59.37% ± 3.07

For each listed entry, give its cells in S phase.
1. CCN(CC)C(=S)[S][Sn]([CH3])([CH3])[S]C(=S)N(CC)CC [ODTC 7, dimethyltin(IV) diethyl dithiocarbamate]
2. CC(C)N(C(=S)[S][Sn]([c]1ccccc1)([c]1ccccc1)[c]1ccccc1)C(C)C

output:
["57.19% ± 2.89", "27.29% ± 5.12"]

---

System: WIL2-NS non-cancerous cells
Assay: WST-1 cytotoxicity assay on WIL2-NS cells
Assay type: cell-based
Settings: WST-1, 24 h exposure, highest concentration 5.0 μM, mean ± SEM, n = 3; read-out: Value of IC50 WIL2-NS
measured endpoint: pIC50
One number for each entry, as −log10 of the molar value.

List the reported pIC50 of each compound below.
1. C=CCN(CC=C)C(=S)[S][Sn]([S]C(=S)N(CC=C)CC=C)([c]1ccccc1)[c]1ccccc1 [ODTC 2, diphenyltin(IV) diallyl dithiocarbamate]
2. CCN(CC)C(=S)[S][Sn]([c]1ccccc1)([c]1ccccc1)[c]1ccccc1 [ODTC 5, triphenyltin(IV) diethyl dithiocarbamate]
3. CC(C)N(C(=S)[S][Sn]([CH3])([CH3])[S]C(=S)N(C(C)C)C(C)C)C(C)C

output:
[6.28, 6.10, 5.30]

---

System: Jurkat E6.1 human T acute lymphoblastic leukemia cell line
Experiment: WST-1 cytotoxicity assay on Jurkat E6.1 cells
Details: IC50 non-cancerous cell line (WIL2-NS) / IC50 leukemia cell line (Jurkat E6.1)
Can you tell me Selectivity Index (SI) for the items I'm about to list?
Numbers only.

Reference set, count: 2
                                   molecule       measured_endpoint  recorded_result
0  CC(C)N(C(=S)[S][Sn]([S]C(=S)N(C(C)C)C(C)C)([c]1ccccc1)[c]1ccccc1)C(C)C  Selectivity Index (SI)             0.96
1  CCN(CC)C(=S)[S][Sn]([c]1ccccc1)([c]1ccccc1)[c]1ccccc1 [ODTC 5, triphenyltin(IV) diethyl dithiocarbamate]  Selectivity Index (SI)             0.86

As a next step, examine the molecule that follows.
input: Look at this molecule and give its reported Selectivity Index (SI). CCN(CC)C(=S)[S][Sn]([CH3])([CH3])[S]C(=S)N(CC)CC [ODTC 7, dimethyltin(IV) diethyl dithiocarbamate]
output: 0.15

---

Assay: in vitro
Settings: human
Method: The Jurkat E6.1 (TIB-152™) and WIL2-NS (CRL-8155™) cell lines were purchased from the American Type Culture Collection. […] Jurkat E6.1 and WIL2-NS cell lines were cultured in 75 cm^2 flasks and seeded in 96-well culture plates with a final concentration of 1 × 10^6 cells/mL. […] Finally, the cells’ optical density (OD) was measured using an ELISA microplate reader (Multiskan FC, Thermo Scientific, Waltham, MA, USA) at 440 nm wavelength. […]
measured endpoint: viability at 24 h, 0.3 µM (%)
One number for each entry, in %.

input: Please look up its viability at 24 h, 0.3 µM: CC[C@]1(O)C[C@H]2CN(CCc3c([nH]c4ccccc34)[C@@](C(=O)OC)(c3cc4c(cc3OC)N(C=O)[C@H]3[C@@](O)(C(=O)OC)[C@H](OC(C)=O)[C@]5(CC)C=CCN6CC[C@]43[C@@H]65)C2)C1 [Vincristine (positive control), Vincristine, reference compound]
output: 40
